Reference source for all entries: patent US20260234140A1

half-life by entry:
Assay: Pharmacokinetics experiment in SD rats
Assay type: in vivo
Conditions: rat, plasma; male SD rats, ig (oral), 5 mg/kg
Reported Property: half-life (h)

INSERT INTO results (compound, unit_info, readout_number) VALUES
  ('[2H]C([2H])([2H])N(Cc1ncc(-c2cccc(-c3cccc(Nc4nc(C(F)F)nc5cc(CN6CC[C@@H](O)C6)cnc45)c3C)c2Cl)cc1OC)C[C@H]1CC[C@H](C(=O)O)CC1 [Example 38]', 'h', 6.1),
  ('COc1nc(-c2cccc(-c3cccc(Nc4nc(C(F)F)nc5cc(CN6CC[C@@H](O)C6)cnc45)c3C)c2Cl)cnc1CN(C)[C@H]1CC[C@H](C(=O)O)CC1 [Example 11]', 'h', 4.3),
  ('COc1nc(-c2cccc(-c3cccc(Nc4nc(C(F)F)nc5cc(CN6CC[C@@H](O)C6)cnc45)c3C)c2Cl)ccc1CN1CCC(C(=O)O)CC1 [Example 40]', 'h', 4.1),
  ('COc1nc(-c2cccc(-c3cccc(Nc4nc(C(F)F)nc5cc(CN6CC[C@@H](O)C6)cnc45)c3C)c2Cl)ccc1CN(C)[C@H]1CC[C@H](C(=O)O)CC1 [Example 1]', 'h', 4.9);

---

Assay: Pharmacokinetics experiment in SD rats
Assay type: in vivo
Conditions: rat, plasma; male SD rats, iv, 1 mg/kg
half-life by entry:
Reported Property: half-life (h)

INSERT INTO assay_data (compound, unit_info, readout_number) VALUES
  ('COc1nc(-c2cccc(-c3cccc(Nc4nc(C(F)F)nc5cc(CN6CC[C@@H](O)C6)cnc45)c3C)c2Cl)ccc1CN1CCC(C(=O)O)CC1 [Example 40]', 'h', 4.5),
  ('COc1nc(-c2cccc(-c3cccc(Nc4nc(C(F)F)nc5cc(CN6CC[C@@H](O)C6)cnc45)c3C)c2Cl)cnc1CN(C)[C@H]1CC[C@H](C(=O)O)CC1 [Example 11]', 'h', 3.9),
  ('[2H]C([2H])([2H])N(Cc1ncc(-c2cccc(-c3cccc(Nc4nc(C(F)F)nc5cc(CN6CC[C@@H](O)C6)cnc45)c3C)c2Cl)cc1OC)C[C@H]1CC[C@H](C(=O)O)CC1 [Example 38]', 'h', 6.6),
  ('COc1nc(-c2cccc(-c3cccc(Nc4nc(C(F)F)nc5cc(CN6CC[C@@H](O)C6)cnc45)c3C)c2Cl)ccc1CN(C)[C@H]1CC[C@H](C(=O)O)CC1 [Example 1]', 'h', 5.4),
  ('COc1nc(-c2cccc(-c3cccc(Nc4nc(C(F)F)nc5cc(CN6CC[C@@H](O)C6)cnc45)c3C)c2Cl)ccc1CN(C)C[C@H]1CC[C@H](C(=O)O)CC1 [Example 17]', 'h', 7.5);

---

Test: Pharmacokinetics experiment in SD rats
Format: in vivo
Details: rat, plasma; male SD rats, iv, 1 mg/kg; read-out: Vss
Method: Experiment 2: Pharmacokinetics Experiment […] 3) A standard curve of an appropriate range was established according to the sample concentration, and the concentration of the test compound in the plasma sample was determined in the MRM mode using an AB SCIEX Q TRAP 4000 LC-MS/MS. The pharmacokinetic parameters were calculated using the non-compartmental model method using WinNonLin 6.3 software.
Reported Property: Vd (L/kg)

INSERT INTO measurements (compound, unit_info, readout_number) VALUES
  ('COc1nc(-c2cccc(-c3cccc(Nc4nc(C(F)F)nc5cc(CN6CC[C@@H](O)C6)cnc45)c3C)c2Cl)ccc1CN(C)C[C@H]1CC[C@H](C(=O)O)CC1 [Example 17]', 'L/kg', 0.95),
  ('COc1nc(-c2cccc(-c3cccc(Nc4nc(C(F)F)nc5cc(CN6CC[C@@H](O)C6)cnc45)c3C)c2Cl)ccc1CN(C)[C@H]1CC[C@H](C(=O)O)CC1 [Example 1]', 'L/kg', 0.82),
  ('[2H]C([2H])([2H])N(Cc1ncc(-c2cccc(-c3cccc(Nc4nc(C(F)F)nc5cc(CN6CC[C@@H](O)C6)cnc45)c3C)c2Cl)cc1OC)C[C@H]1CC[C@H](C(=O)O)CC1 [Example 38]', 'L/kg', 0.91),
  ('COc1nc(-c2cccc(-c3cccc(Nc4nc(C(F)F)nc5cc(CN6CC[C@@H](O)C6)cnc45)c3C)c2Cl)cnc1CN(C)[C@H]1CC[C@H](C(=O)O)CC1 [Example 11]', 'L/kg', 0.75),
  ('COc1nc(-c2cccc(-c3cccc(Nc4nc(C(F)F)nc5cc(CN6CC[C@@H](O)C6)cnc45)c3C)c2Cl)ccc1CN1CCC(C(=O)O)CC1 [Example 40]', 'L/kg', 0.43);
